test system: HEK-293T; assay: Multiplex assay against HEK293T; type: toxicity, cell-based; conditions: human, 24 h, 1 µM, compound concentration 1 uM, replicate 1
Population Mitochondria Different-Phenotype (%) listing for selected compounds.
endpoint-label: Population Mitochondria Different-Phenotype (%)

compound: CC(/C=C1\SC(=S)N(CCCC(=O)Nc2ccc(C(=O)O)c(O)c2)C1=O)=C\c1ccccc1
data-value: 53
--
compound: CCOC(=O)CCNc1cc(N2CCc3ccccc3CC2)nc(-c2ccccn2)n1
data-value: 2
--
compound: Cc1c(Nc2ccc(S(=O)(=O)N3CCN(C)CC3)cc2F)nc2ccc(Nc3cnn(C4CC4)c3)cn2c1=O
data-value: 9
--
compound: CN1C(=O)[C@@H](NC(=O)c2cc3ccccc3[nH]2)N=C(c2ccccc2)c2ccccc21 [DEVAZEPIDE]
data-value: 67
--
compound: N#Cc1cccc(C(=O)Nc2cc(-c3ccccc3)nn2-c2ccccc2)c1
data-value: 61
--
compound: NC(=O)c1ccc2nc(-c3ccc(C4(N)CCC4)cc3)c(-c3ccccc3)n2n1 [BAY-1125976]
data-value: 9

----------
test system: HEK-293T; assay: Multiplex assay against HEK293T; format: toxicity, cell-based; settings: human, 12 h, 10 µM, compound concentration 10 uM, replicate 2

molecule: C=CC(=O)Nc1cc(-n2c(=O)ccc3cnc4ccc(-c5ccc(NS(C)(=O)=O)cc5)cc4c32)ccc1C
Population Pyknosed Nuclei (%): 58%

molecule: CC[C@@]1(O)C(=O)OCc2c1cc1n(c2=O)Cc2cc3ccccc3nc2-1
Population Pyknosed Nuclei (%): 3%

molecule: NC(=O)c1ccc2nc(-c3ccc(C4(N)CCC4)cc3)c(-c3ccccc3)n2n1
Population Pyknosed Nuclei (%): 4%

molecule: CCOC(=O)CCNc1cc(N2CCc3ccccc3CC2)nc(-c2ccccn2)n1
Population Pyknosed Nuclei (%): 8%

molecule: c1ccc(-c2oc3ncnc(NC[C@@H]4CCCO4)c3c2-c2ccccc2)cc1
Population Pyknosed Nuclei (%): 63%

molecule: CC(Cc1ccc(O)c(O)c1)C(C)Cc1ccc(O)c(O)c1 (stereo not drawn) [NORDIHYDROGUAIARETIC ACID]
Population Pyknosed Nuclei (%): 38%

molecule: CC(C)C[C@H](NC(=O)[C@H](Cc1ccccc1)NC(=O)CNC(=O)CNC(=O)[C@@H](N)Cc1ccc(O)cc1)C(=O)O
Population Pyknosed Nuclei (%): 50%

molecule: CC[C@@H]1C(=O)N(C)c2cnc(Nc3ccc(C(=O)NC4CCN(C)CC4)cc3OC)nc2N1C1CCCC1
Population Pyknosed Nuclei (%): 13%

----------
system: HEK-293T; assay: Incucyte cell viability with HEK293T; format: toxicity, cell-based; conditions: human, 18 h, 10 µM, compound concentration 10 uM, replicate number 1, timepoint 18 hours; further: filed as whole numbers so only -1 and 0 and 1 occur
The entries below come with measured Growth Rate values attached.

compound: CC(C)C[C@H](NC(=O)N1CCCCCC1)C(=O)N[C@H](Cc1cn(C)c2ccccc12)C(=O)N[C@H](Cc1ccccn1)C(=O)O
Growth Rate: 1
//
compound: Cc1c(C2=CCN(C(=O)N(C)C(C)C)CC2)nnn1-c1cccnc1F
Growth Rate: 0
//
compound: NC(=O)c1ccc2nc(-c3ccc(C4(N)CCC4)cc3)c(-c3ccccc3)n2n1
Growth Rate: 0
//
compound: CC(Cc1ccc(O)c(O)c1)C(C)Cc1ccc(O)c(O)c1 (stereo not drawn) [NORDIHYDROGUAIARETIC ACID]
Growth Rate: 0
//
compound: O=C(O)[C@H]1[C@H](Cn2nnc3ccccc3c2=O)CC[C@@H]1C(=O)c1ccc(OCCC2CCOCC2)cc1
Growth Rate: 1
//
compound: CNC(=O)Nc1ccc2c(c1)CC[C@@]21OC(=O)N(CC(=O)N(Cc2ccc(F)cc2)[C@@H](C)C(F)(F)F)C1=O
Growth Rate: 0
//
compound: c1cc(CN2CCCNCCNCCCNCC2)ccc1CN1CCCNCCNCCCNCC1
Growth Rate: 0
//
compound: Oc1cccc(-c2nc(N3CCOCC3)c3oc4ncccc4c3n2)c1
Growth Rate: 0
